System: UACC-62
assay method text: NCI tumour cell line growth inhibition, 48 h
The source made the active and inactive calls. Cut-off read from the data, not from the text of the source: active = GI50 up to about 1.1 µM and inactive = higher.
In this section, each of the molecules is paired with its reported GI50.
measurement label: GI50

[
  {
    "molecule": "Oc1c(Br)cc(/C=C/c2cccc(/C=C/c3cc(Br)c(O)c(Br)c3)n2)cc1Br",
    "data value": "15.7 µM (inactive)"
  },
  {
    "molecule": "O=C1COc2cc3c(cc2N1)SCCC(=O)N3",
    "data value": "> 100 µM (inactive)"
  },
  {
    "molecule": "O=C(O)CN1C(=O)c2ccc(NC(=O)C(=O)O)cc2S1(=O)=O",
    "data value": "> 100 µM (inactive)"
  },
  {
    "molecule": "C/C(=N\\N(C)C)C(CN(C)C)C(c1ccccc1)c1c(O)c2ccccc2oc1=O (stereo unspecified)",
    "data value": "> 100 µM (inactive)"
  },
  {
    "molecule": "O=C1c2ccccc2C(=O)N1CCc1ncc[nH]1",
    "data value": "> 100 µM (inactive)"
  },
  {
    "molecule": "C[N+](C)(CCO)CCN1c2ccccc2Sc2ccccc21",
    "data value": "> 10 µM (inactive)"
  },
  {
    "molecule": "CCn1c(O)c(C(=O)Nc2cccs2)c(=O)n(CC)c1=S",
    "data value": "16 µM (inactive)"
  },
  {
    "molecule": "CSc1nc2ccccc2c(=O)n1-c1cccc(C)c1",
    "data value": "71 µM (inactive)"
  },
  {
    "molecule": "Cn1c(=O)oc2cc(C(O)CN3CCN(Cc4ccc5c(c4)OCO5)CC3)ccc21 (stereo unspecified)",
    "data value": "> 100 µM (inactive)"
  },
  {
    "molecule": "COc1ccc(NC(=O)CC(=O)n2nc(-c3ccccc3)c(/N=N/c3ccccc3C(=O)O)c2-c2ccccc2)cc1",
    "data value": "> 100 µM (inactive)"
  },
  {
    "molecule": "O=C1OC(c2ccccc2)=N/C1=C\\c1cccc2ccccc12",
    "data value": "> 100 µM (inactive)"
  }
]
